- target_or_system: UniProt Q02153
- test: Measurement of sGC activation in vitro (cGMP production by purified sGC)
- Assay type: biochemical
- condition: 20 min; test compound diluted to 30 μM, 10 μL/well plus equal volumes of sGC and GTP; 20 min at room temperature; cGMP without compound (1% DMSO) = 100%; read-out: cGMP amount (%) in experiment system
assay_metric: activity at 10 µM

Completed entries (count: 5):
O=C(O)c1cnn(-c2nc(-c3ccc(Cl)c(Cl)c3)cs2)c1C1CC1 > 1000%
O=C(O)c1cnn(-c2nc(-c3ccc(Cl)s3)cs2)c1C(F)(F)F > 1000%
O=C(O)c1cnn(-c2nc(Cc3cccc(C(F)(F)F)c3)cs2)c1C(F)(F)F > 1000%
Cc1c(C(=O)O)cnn1-c1nc(-c2ccc(Cl)c(Cl)c2)cs1 > 1000%
Cc1sc(-c2cc(Cl)cc(C(F)(F)F)c2)nc1Cn1cc(C(=O)O)cn1 > 1000%

Exercise: Kindly indicate its recorded activity at 10 µM. Item: `O=C(O)c1cnn(Cc2ncc(-c3cccc(C(F)(F)F)c3)s2)c1`
Key: 996%

Exercise: Kindly indicate its recorded activity at 10 µM. Item: `FC(F)(F)c1cccc(-c2csc(Cn3cc(-c4nn[nH]n4)cn3)n2)c1`
Key: 503%

Exercise: Kindly indicate its recorded activity at 10 µM. Item: `O=C(O)c1cnn(Cc2csc(-c3cccc(C(F)(F)F)c3)n2)c1`
Key: > 1000%

Exercise: Kindly indicate its recorded activity at 10 µM. Item: `O=C(O)c1cnn(-c2nc(-c3ccc(Cl)c(Cl)c3)cs2)c1C(F)(F)F`
Key: > 1000%

Exercise: Kindly indicate its recorded activity at 10 µM. Item: `O=C(O)c1ccc(Cc2nc(-c3cccc(C(F)(F)F)c3)cs2)cc1`
Key: > 1000%

----------
- target_or_system: Purified sGC (Homo sapiens, UniProt Q02153)
- Sequence (Q02153 whole entry): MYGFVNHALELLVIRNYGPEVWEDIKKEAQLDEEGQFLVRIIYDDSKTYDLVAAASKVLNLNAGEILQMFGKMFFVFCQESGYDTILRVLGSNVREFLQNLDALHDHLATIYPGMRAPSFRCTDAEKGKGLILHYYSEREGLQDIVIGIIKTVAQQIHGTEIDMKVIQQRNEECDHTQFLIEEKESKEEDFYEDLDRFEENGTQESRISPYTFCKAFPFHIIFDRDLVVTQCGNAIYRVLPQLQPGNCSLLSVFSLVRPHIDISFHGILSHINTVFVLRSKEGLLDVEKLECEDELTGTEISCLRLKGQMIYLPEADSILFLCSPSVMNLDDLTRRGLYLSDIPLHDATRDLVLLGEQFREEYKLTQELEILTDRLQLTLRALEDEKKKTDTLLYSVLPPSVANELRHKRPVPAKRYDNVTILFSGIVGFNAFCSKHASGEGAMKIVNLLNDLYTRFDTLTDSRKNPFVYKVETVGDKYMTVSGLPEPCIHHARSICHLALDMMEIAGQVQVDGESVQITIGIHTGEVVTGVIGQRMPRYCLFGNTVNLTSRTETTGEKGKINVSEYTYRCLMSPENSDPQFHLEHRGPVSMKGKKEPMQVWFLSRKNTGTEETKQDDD
- Sequence (Q02108 whole entry partner): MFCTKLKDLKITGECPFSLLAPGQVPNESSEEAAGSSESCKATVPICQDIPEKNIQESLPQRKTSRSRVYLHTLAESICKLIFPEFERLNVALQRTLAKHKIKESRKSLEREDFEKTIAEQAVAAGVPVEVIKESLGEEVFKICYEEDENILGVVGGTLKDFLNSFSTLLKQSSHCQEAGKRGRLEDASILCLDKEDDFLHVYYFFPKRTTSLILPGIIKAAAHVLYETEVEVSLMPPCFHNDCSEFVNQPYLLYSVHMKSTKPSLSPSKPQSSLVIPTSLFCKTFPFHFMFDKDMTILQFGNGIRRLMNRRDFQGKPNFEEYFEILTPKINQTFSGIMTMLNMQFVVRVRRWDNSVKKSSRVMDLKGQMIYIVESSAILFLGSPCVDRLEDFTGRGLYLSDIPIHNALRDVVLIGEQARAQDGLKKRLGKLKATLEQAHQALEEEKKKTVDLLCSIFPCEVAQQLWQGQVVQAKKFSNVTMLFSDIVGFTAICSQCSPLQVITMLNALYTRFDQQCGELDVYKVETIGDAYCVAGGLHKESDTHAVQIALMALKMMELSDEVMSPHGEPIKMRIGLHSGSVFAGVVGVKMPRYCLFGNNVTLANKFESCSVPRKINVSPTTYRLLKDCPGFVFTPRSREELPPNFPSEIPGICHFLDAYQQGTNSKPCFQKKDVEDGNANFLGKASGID
- test: Measurement of sGC activation in vitro (cGMP production by purified sGC)
- Assay type: biochemical
- condition: 20 min; test compound diluted to 30 μM, 10 μL/well plus equal volumes of sGC and GTP; 20 min at room temperature; cGMP without compound (1% DMSO) = 100%; read-out: cGMP amount (%) in experiment system
- Experimental: To evaluate sGC activation of each compound, the following in vitro tests were performed. A test compound was diluted with a reaction buffer (50 mM HEPES, 5 mM MgCl2, 2 mM DTT, 0.5 mM IBMX (isobutylmethylxanthine), 0.01% BSA) to 30 μM (3% DMSO), and dispensed to a 384 well plate (manufactured by REMP) at 10 μL/well. […] Then, the amount of the resulting cGMP contained in the supernatant was quantified using a CatchPoint cGMP assay kit (molecular devices). […]
assay_metric: activity at 10 µM

Completed entries (count: 5):
O=C(Nc1cccc(Cl)c1)c1csc(-n2ncc(C(=O)O)c2C(F)(F)F)n1 > 1000%
Cc1cc(C(=O)O)nn1Cc1nc(-c2ccc(Cl)c(Cl)c2)cs1 420%
O=C(O)c1ccc(Cc2nc(-c3ccc(Cl)c(Cl)c3)cs2)cc1 > 1000%
Cc1c(C(=O)O)cnn1Cc1nc(-c2cccc(C(F)(F)F)c2)cs1 > 1000%
CS(=O)(=O)NC(=O)c1cnn(-c2nc(-c3ccc(Cl)c(Cl)c3)cs2)c1C(F)(F)F > 1000%

With those in mind, consider the next compound.
Exercise: Kindly indicate its recorded activity at 10 µM. Item: `FC(F)(F)c1c(-c2nn[nH]n2)cnn1-c1nc(-c2ccc(Cl)c(Cl)c2)cs1`
Key: > 1000%
